Cited source: ChEMBL document CHEMBL1154180

test target: Cathepsin S (Homo sapiens, UniProt P25774)
Sequence (P25774 whole entry): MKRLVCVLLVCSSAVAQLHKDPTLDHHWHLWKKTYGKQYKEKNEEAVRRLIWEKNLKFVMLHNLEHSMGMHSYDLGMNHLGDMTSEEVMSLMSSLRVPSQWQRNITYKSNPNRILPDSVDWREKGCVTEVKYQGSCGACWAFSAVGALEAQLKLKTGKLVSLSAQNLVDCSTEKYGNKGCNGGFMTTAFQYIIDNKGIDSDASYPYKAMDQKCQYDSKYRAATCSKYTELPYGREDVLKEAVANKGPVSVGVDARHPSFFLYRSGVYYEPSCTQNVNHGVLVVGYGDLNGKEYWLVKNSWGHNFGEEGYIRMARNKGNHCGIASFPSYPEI
assay remarks: Inhibition of human recombinant cathepsin S expressed in baculovirus by FRET assay
readout label: IC50

Hello, I would appreciate it if you could give IC50 for each entry below.
1. CS(=O)(=O)N1CCc2c(c(-c3ccc(Cl)c(C#Cc4ccc(Cl)cc4)c3)nn2CC(O)CN2CCOCC2)C1 (stereo not drawn)
2. COC(=O)[C@H](NCc1ccc(C#Cc2cc(-c3nn(CCCN4CCOCC4)c4c3CN(S(C)(=O)=O)CC4)ccc2Cl)cc1)c1ccccc1
3. CNCc1ccc(C#Cc2cc(-c3nn(CCCN4CCOCC4)c4c3CN(S(C)(=O)=O)CC4)ccc2Cl)cc1

Reply:
1: 140 nM; 2: 100 nM; 3: 1300 nM

* * *

test target: Cathepsin S (Homo sapiens, UniProt P25774)
assay remarks: Inhibition of human recombinant cathepsin S expressed in baculovirus by FRET assay
Give pIC50 for every item shown.
Numbers only, as −log10 of the molar value.

compound	test target	pIC50
CN(Cc1ccccc1)Cc1ccc(C#Cc2cc(-c3nn(CCCN4CCOCC4)c4c3CN(S(C)(=O)=O)CC4)ccc2Cl)cc1	Cathepsin S (Homo sapiens, UniProt P25774)	6.22
CS(=O)(=O)N1CCc2c(c(-c3ccc(Cl)c(C#Cc4ccc(CNCc5ccc(Cl)cc5)cc4)c3)nn2CCCN2CCOCC2)C1	Cathepsin S (Homo sapiens, UniProt P25774)	6.85
CS(=O)(=O)N1CCc2c(c(-c3ccc(Cl)c(C#Cc4ccc(CNS(=O)(=O)c5ccccc5)cc4)c3)nn2CCCN2CCOCC2)C1	Cathepsin S (Homo sapiens, UniProt P25774)	6.80
CS(=O)(=O)N1CCc2c(c(-c3ccc(Cl)c(C#Cc4ccc(CN)cc4)c3)nn2CCCN2CCOCC2)C1	Cathepsin S (Homo sapiens, UniProt P25774)	6.31
CC(C)(C)OC(=O)N1CCN(CC(O)Cn2nc(-c3ccc(Cl)c(C#Cc4ccc(Cl)cc4)c3)c3c2CCN(S(C)(=O)=O)C3)CC1 (configuration not stated)	Cathepsin S (Homo sapiens, UniProt P25774)	6.82

Hello, I would appreciate it if you could give pIC50 for each entry below.
1. CS(=O)(=O)N1CCc2c(c(-c3ccc(Cl)c(C#Cc4ccc(Cl)cc4)c3)nn2CC(O)CN2CCNCC2)C1 (configuration not stated)
2. CS(=O)(=O)N1CCc2c(c(-c3ccc(Cl)c(C#Cc4ccc(CNCc5ccccc5)cc4)c3)nn2CCCN2CCOCC2)C1

Reply:
[6.42, 6.38]

* * *

test target: Cathepsin S (Homo sapiens, UniProt P25774)
assay remarks: Inhibition of cathepsin S in human JY cells assessed as invariant chain li degradation by Western blotting
Assay type: cell-based
Give IC50 for every item shown.

Reference set, count: 10
compound	IC50
COC(=O)[C@H](NCc1ccc(C#Cc2cc(-c3nn(CCCN4CCOCC4)c4c3CN(S(C)(=O)=O)CC4)ccc2Cl)cc1)c1ccccc1	> 10 µM
Cc1ccc(CNCc2ccc(C#Cc3cc(-c4nn(CCCN5CCOCC5)c5c4CN(S(C)(=O)=O)CC5)ccc3Cl)cc2)cc1	1.1 µM
CS(=O)(=O)N1CCc2c(c(-c3ccc(Cl)c(C#Cc4ccc(CNCc5ccccc5)cc4)c3)nn2CCCN2CCOCC2)C1	4.2 µM
CN(Cc1ccccc1)Cc1ccc(C#Cc2cc(-c3nn(CCCN4CCOCC4)c4c3CN(S(C)(=O)=O)CC4)ccc2Cl)cc1	> 10 µM
CS(=O)(=O)N1CCc2c(c(-c3ccc(Cl)c(C#Cc4ccc(Cl)cc4)c3)nn2CC(O)CN2CCCCC2)C1 (stereo not drawn)	> 10 µM
CC(C)(C)OC(=O)N1CCN(CC(O)Cn2nc(-c3ccc(Cl)c(C#Cc4ccc(Cl)cc4)c3)c3c2CCN(S(C)(=O)=O)C3)CC1 (stereo not drawn)	> 10 µM
CS(=O)(=O)N1CCc2c(c(-c3ccc(Cl)c(C#Cc4ccc(Cl)cc4)c3)nn2CC(O)CN2CCOCC2)C1 (stereo not drawn)	> 10 µM
CS(=O)(=O)N1CCc2c(c(-c3ccc(Cl)c(C#Cc4ccc(CNCc5ccc(Cl)c(Cl)c5)cc4)c3)nn2CCCN2CCOCC2)C1	1.8 µM
CN1CCC(C2CCN(C[C@H](O)Cn3nc(-c4ccc(Cl)c(C#Cc5ccc(Cl)cc5)c4)c4c3CCN(S(C)(=O)=O)C4)CC2)CC1	0.72 µM
CS(=O)(=O)N1CCc2c(c(-c3ccc(Cl)c(C#Cc4ccc(Cl)cc4)c3)nn2CC(O)CN2CCC(C(N)=O)CC2)C1 (stereo not drawn)	> 10 µM

Hello, I would appreciate it if you could give IC50 for each entry below.
1. CS(=O)(=O)N1CCc2c(c(-c3ccc(Cl)c(C#Cc4ccc(CNC(=O)c5ccccc5)cc4)c3)nn2CCCN2CCOCC2)C1
2. COc1ccc(CNCc2ccc(C#Cc3cc(-c4nn(CCCN5CCOCC5)c5c4CN(S(C)(=O)=O)CC5)ccc3Cl)cc2)cc1
3. CNCc1ccc(C#Cc2cc(-c3nn(CCCN4CCOCC4)c4c3CN(S(C)(=O)=O)CC4)ccc2Cl)cc1
4. CS(=O)(=O)N1CCc2c(c(-c3ccc(Cl)c(C#Cc4ccc(CNS(=O)(=O)c5ccccc5)cc4)c3)nn2CCCN2CCOCC2)C1
5. COC(=O)[C@@H](NCc1ccc(C#Cc2cc(-c3nn(CCCN4CCOCC4)c4c3CN(S(C)(=O)=O)CC4)ccc2Cl)cc1)c1ccccc1
6. CS(=O)(=O)N1CCc2c(c(-c3ccc(Cl)c(C#Cc4ccc(Cl)cc4)c3)nn2CC(O)CN2CCNCC2)C1 (stereo not drawn)
7. CC(C)(C)OC(=O)N1CCC(C2CCN(C[C@H](O)Cn3nc(-c4ccc(Cl)c(C#Cc5ccc(Cl)cc5)c4)c4c3CCN(S(C)(=O)=O)C4)CC2)CC1
8. COC(=O)C1CCN(CC(O)Cn2nc(-c3ccc(Cl)c(C#Cc4ccc(Cl)cc4)c3)c3c2CCN(S(C)(=O)=O)C3)CC1 (stereo not drawn)

Reply:
> 10 µM
0.82 µM
> 10 µM
> 10 µM
> 10 µM
> 10 µM
> 10 µM
> 10 µM
